The reported measurements were obtained from patent US20120045501A1.

Test system: U251cx43-216 cells
Assay: MTT cell viability assay
Conditions: Homo sapiens, 144 h
endpoint-name: pIC50
# reply with the number alone; pIC50 is -log10 of concentration in mol/L

CC(=O)O[C@H]1C(=O)[C@@]2(C)[C@H]([C@H](OC(=O)c3ccccc3)[C@]3(O)C[C@H](OC(=O)[C@H](O)[C@@H](NC(=O)c4ccccc4)c4ccccc4)C(C)=C1C3(C)C)[C@]1(OC(C)=O)CO[C@@H]1C[C@@H]2O | 9.15

Entry COc1cccc2c1C(=O)c1c(O)c3c(c(O)c1C2=O)C[C@@](O)(C(=O)CO)C[C@@H]3O[C@H]1C[C@H](N)[C@H](O)[C@H](C)O1 , pIC50 reported as 9.09

Per the record, COc1cc([C@@H]2c3cc4c(cc3[C@@H](O[C@@H]3O[C@@H]5CO[C@@H](C)O[C@H]5[C@H](O)[C@H]3O)[C@H]3COC(=O)[C@H]23)OCO4)cc(OC)c1O [VP16, Etoposide] has pIC50 of 6.41
